Target: panel of more than 300 wild-type and mutant kinases (313 kinase panel) (Homo sapiens, UniProt P00533, L858R)
Sequence (P00533 25-1210 L858R): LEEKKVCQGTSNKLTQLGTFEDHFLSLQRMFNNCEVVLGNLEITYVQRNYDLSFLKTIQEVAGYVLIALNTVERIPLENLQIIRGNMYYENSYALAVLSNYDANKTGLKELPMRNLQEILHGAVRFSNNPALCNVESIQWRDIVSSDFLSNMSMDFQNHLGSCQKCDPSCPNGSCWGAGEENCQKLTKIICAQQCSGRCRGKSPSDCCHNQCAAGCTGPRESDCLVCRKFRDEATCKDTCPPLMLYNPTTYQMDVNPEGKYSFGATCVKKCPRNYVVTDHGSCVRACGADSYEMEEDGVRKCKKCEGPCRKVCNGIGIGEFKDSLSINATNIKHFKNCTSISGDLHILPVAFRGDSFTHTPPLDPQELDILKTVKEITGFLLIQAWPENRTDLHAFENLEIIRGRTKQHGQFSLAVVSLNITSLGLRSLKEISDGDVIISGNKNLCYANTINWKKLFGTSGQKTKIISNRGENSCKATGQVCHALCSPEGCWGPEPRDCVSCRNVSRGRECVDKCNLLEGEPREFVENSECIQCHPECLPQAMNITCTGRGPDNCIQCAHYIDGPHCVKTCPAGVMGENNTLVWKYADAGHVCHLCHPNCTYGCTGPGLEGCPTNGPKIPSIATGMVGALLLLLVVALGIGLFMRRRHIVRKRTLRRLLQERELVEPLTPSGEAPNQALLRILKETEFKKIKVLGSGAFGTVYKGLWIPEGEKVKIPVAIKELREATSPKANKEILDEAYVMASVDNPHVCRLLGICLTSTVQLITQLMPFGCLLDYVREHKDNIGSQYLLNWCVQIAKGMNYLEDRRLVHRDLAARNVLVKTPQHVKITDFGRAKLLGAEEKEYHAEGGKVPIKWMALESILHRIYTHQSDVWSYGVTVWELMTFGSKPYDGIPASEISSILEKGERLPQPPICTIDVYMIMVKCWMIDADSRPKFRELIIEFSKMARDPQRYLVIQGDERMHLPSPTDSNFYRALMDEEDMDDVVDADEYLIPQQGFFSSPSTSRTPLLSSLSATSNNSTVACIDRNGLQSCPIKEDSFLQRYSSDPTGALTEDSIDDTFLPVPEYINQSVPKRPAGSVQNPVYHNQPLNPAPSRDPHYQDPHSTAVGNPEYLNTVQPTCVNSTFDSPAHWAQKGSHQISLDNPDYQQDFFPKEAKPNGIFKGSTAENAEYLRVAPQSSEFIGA
Assay: Kinase profiling in a biochemical assay panel (mobility shift assays and ELISA), %-inhibition at 1 μM; selectivity entropy
Details: kinase EGFR(L858R); compound at 1 μM
resultType: %-inhibition of EGFR(L858R) (%)
Give bare numbers, in %.

Previously resolved entries follow.
compound	unitAnnotation	%-inhibition of EGFR(L858R)
N#CC[C@H](C1CCCC1)n1cc(-c2ncnc3[nH]ccc23)cn1	%	-4
COc1cc2nccc(Oc3ccc(NC(=O)C4(C(=O)Nc5ccc(F)cc5)CC4)cc3)c2cc1OC [cabozantinib]	%	30

Provide %-inhibition of EGFR(L858R) for all items below, preserving their order.
1. CCCS(=O)(=O)Nc1ccc(F)c(C(=O)c2c[nH]c3ncc(-c4ccc(Cl)cc4)cc23)c1F
2. Cc1ccc(Nc2nccc(N(C)c3ccc4c(C)n(C)nc4c3)n2)cc1S(N)(=O)=O

Reply |
0.505
36

Hi, could you look up %-inhibition of EGFR(L858R) for each item in my list?
1. CNC(=O)c1cc(Oc2ccc(NC(=O)Nc3ccc(Cl)c(C(F)(F)F)c3)c(F)c2)ccn1
2. Cc1cn(-c2cc(NC(=O)c3ccc(C)c(Nc4nccc(-c5cccnc5)n4)c3)cc(C(F)(F)F)c2)cn1

Reply |
2.24
30

###

Molecular target: panel of more than 300 wild-type and mutant kinases (313 kinase panel) (Homo sapiens, UniProt P07949, Y791F)
Sequence (P07949 29-1114 Y791F): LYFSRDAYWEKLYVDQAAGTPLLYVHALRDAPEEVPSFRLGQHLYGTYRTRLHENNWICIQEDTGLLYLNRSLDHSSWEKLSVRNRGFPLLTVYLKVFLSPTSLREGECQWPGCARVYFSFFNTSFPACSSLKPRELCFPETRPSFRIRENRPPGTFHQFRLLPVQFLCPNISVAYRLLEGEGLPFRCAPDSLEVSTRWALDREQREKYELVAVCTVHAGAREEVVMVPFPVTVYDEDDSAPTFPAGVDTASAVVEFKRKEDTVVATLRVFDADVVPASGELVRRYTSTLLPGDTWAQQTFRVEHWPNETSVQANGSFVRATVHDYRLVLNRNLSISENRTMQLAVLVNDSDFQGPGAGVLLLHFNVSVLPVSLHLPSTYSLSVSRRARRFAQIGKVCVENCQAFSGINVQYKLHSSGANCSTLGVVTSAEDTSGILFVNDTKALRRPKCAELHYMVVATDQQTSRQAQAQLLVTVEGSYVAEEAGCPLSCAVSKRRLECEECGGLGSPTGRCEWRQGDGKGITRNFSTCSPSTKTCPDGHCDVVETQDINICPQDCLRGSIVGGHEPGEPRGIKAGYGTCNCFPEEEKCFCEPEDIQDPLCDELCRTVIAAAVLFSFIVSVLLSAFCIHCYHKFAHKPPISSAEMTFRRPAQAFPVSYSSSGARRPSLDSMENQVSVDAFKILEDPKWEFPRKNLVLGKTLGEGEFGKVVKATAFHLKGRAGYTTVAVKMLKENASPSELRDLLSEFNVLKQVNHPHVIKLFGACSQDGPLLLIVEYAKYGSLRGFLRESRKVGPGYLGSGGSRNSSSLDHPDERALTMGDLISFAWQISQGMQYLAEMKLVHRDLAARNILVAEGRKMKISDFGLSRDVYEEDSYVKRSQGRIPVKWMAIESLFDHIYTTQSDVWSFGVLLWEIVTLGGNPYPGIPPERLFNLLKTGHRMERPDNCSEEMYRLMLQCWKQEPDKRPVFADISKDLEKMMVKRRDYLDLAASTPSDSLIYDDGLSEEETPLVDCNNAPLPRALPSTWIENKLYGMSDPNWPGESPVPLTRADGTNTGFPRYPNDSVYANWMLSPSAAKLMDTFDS
Test: Kinase profiling in a biochemical assay panel (mobility shift assays and ELISA), %-inhibition at 1 μM; selectivity entropy
Conditions: 1 µM
For each record, write down the corresponding %-inhibition of RET(Y791F).
Give bare numbers, in %.

Answered examples (3):
compound	resultType	assayValue
CNC(=O)c1cc(Oc2ccc(NC(=O)Nc3ccc(Cl)c(C(F)(F)F)c3)c(F)c2)ccn1 [regorafenib]	%-inhibition of RET(Y791F)	102
CS(=O)(=O)CCNCc1ccc(-c2ccc3ncnc(Nc4ccc(OCc5cccc(F)c5)c(Cl)c4)c3c2)o1 [lapatinib]	%-inhibition of RET(Y791F)	-5
Cc1cn(-c2cc(NC(=O)c3ccc(C)c(Nc4nccc(-c5cccnc5)n4)c3)cc(C(F)(F)F)c2)cn1 [nilotinib]	%-inhibition of RET(Y791F)	16

Now look at this one.
Ask | Check the records and state %-inhibition of RET(Y791F) for C#Cc1cccc(Nc2ncnc3cc(OCCOC)c(OCCOC)cc23)c1 [erlotinib]
Reply | 70

###

Target: panel of more than 300 wild-type and mutant kinases (313 kinase panel) (Homo sapiens, UniProt Q96PN8)
Sequence (Q96PN8 1-268): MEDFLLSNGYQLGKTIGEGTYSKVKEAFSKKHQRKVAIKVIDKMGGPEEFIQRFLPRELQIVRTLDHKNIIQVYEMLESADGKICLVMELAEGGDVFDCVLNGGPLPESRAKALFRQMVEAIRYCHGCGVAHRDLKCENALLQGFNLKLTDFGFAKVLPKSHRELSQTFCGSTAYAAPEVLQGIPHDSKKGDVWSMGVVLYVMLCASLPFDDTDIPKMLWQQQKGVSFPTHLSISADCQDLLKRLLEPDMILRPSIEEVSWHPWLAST
Assay: Kinase profiling in a biochemical assay panel (mobility shift assays and ELISA), %-inhibition at 1 μM; selectivity entropy
Details: kinase TSSK3; compound at 1 μM
resultType: %-inhibition of TSSK3 (%)
One number for each entry, in %.

Below, 3 molecules whose answers are already recorded.
givenSmiles	%-inhibition of TSSK3, %
Cc1ccc(C(=O)Nc2ccc(CN3CCN(C)CC3)c(C(F)(F)F)c2)cc1C#Cc1cnc2cccnn12	-4.67
CC(C)(C)c1nc(-c2cccc(NS(=O)(=O)c3c(F)cccc3F)c2F)c(-c2ccnc(N)n2)s1	-8
Cc1nc(Nc2ncc(C(=O)Nc3c(C)cccc3Cl)s2)cc(N2CCN(CCO)CC2)n1	-2.69

For each listed entry, give its %-inhibition of TSSK3.
1. Cc1ccc(Nc2nccc(N(C)c3ccc4c(C)n(C)nc4c3)n2)cc1S(N)(=O)=O
2. C[C@@H](Oc1cc(-c2cnn(C3CCNCC3)c2)cnc1N)c1c(Cl)ccc(F)c1Cl
3. COc1cc2c(Nc3ccc(Br)cc3F)ncnc2cc1OCC1CCN(C)CC1
4. CCCS(=O)(=O)Nc1ccc(F)c(C(=O)c2c[nH]c3ncc(-c4ccc(Cl)cc4)cc23)c1F
5. O=S(=O)(c1cccc2cnccc12)N1CCCNCC1
6. CO[C@H]1C[C@@H]2CC[C@@H](C)[C@@](O)(O2)C(=O)C(=O)N2CCCC[C@H]2C(=O)O[C@H]([C@H](C)C[C@@H]2CC[C@@H](OC(=O)C(C)(CO)CO)[C@H](OC)C2)CC(=O)[C@H](C)/C=C(\C)[C@@H](O)[C@@H](OC)C(=O)[C@H](C)C[C@H](C)/C=C/C=C/C=C/1C
7. CO[C@H]1C[C@@H]2CC[C@@H](C)[C@@](O)(O2)C(=O)C(=O)N2CCCC[C@H]2C(=O)O[C@H]([C@H](C)C[C@@H]2CC[C@@H](OCCO)[C@H](OC)C2)CC(=O)[C@H](C)/C=C(\C)[C@@H](O)[C@@H](OC)C(=O)[C@H](C)C[C@H](C)/C=C/C=C/C=C/1C
8. N#CC[C@H](C1CCCC1)n1cc(-c2ncnc3[nH]ccc23)cn1

Reply |
[4.41, -0.601, -2.54, -3.19, -6, -2.63, -3, -3]

// batch mode: one %-inhibition of TSSK3 value per listed entry
1. CNC(=O)c1cc(Oc2ccc(NC(=O)Nc3ccc(Cl)c(C(F)(F)F)c3)c(F)c2)ccn1
2. COc1cc(Nc2c(C#N)cnc3cc(OCCCN4CCN(C)CC4)c(OC)cc23)c(Cl)cc1Cl
3. CC(=O)Nc1cccc(-n2c(=O)n(C3CC3)c(=O)c3c(Nc4ccc(I)cc4F)n(C)c(=O)c(C)c32)c1

Reply |
1. -4.39
2. -2
3. -8
